- Tested on: SH-SY5Y
- procedure text: Cytotoxicity against human SH-SY5Y cells after 48 hrs by neutral red assay
- Format: functional, cell-based
- condition summary: read-out: pEC50 (converted)
endpoint name: EC50 (µM)
Field format: number, assumed µM, no unit text.

Use these answered entries as a reference point.
In [3]: df
Out[3]:
                                   molecule  endpoint_name  recorded_result
0  CONC(C)Cc1ccc(SC)cc1 (centres undefined)           EC50             2450
1  CCNC(C)Cc1ccc(SCC)cc1 (centres undefined)           EC50              302
2  CCNC(CC)Cc1ccc(SC)cc1 (centres undefined)           EC50              151

Challenge: Request: EC50, test system SH-SY5Y, entry CCC(Cc1ccc(SC)cc1)NC (centres undefined)
Response given: 832

Challenge: Form field: EC50 recorded for CCSc1ccc(CC(C)N)cc1 (centres undefined) with SH-SY5Y (enter value)
Response given: 64.6
